Test system: Sagittaria pygmaea
protocol_description: Herbicidal activity against Sagittaria pygmaea assessed as killing at 1 g/ha by pot test
Type: functional
Assignment: determine reported Activity for the given molecules.

For every item below, please supply its Activity.
1. COc1cc(OC)nc(NC(=O)NS(=O)(=O)c2ncn3ccccc23)n1
2. COc1cc(OC)nc(NC(=O)NS(=O)(=O)c2c(C)nn3ccccc23)n1
3. COc1cc(OC)nc(NC(=O)NS(=O)(=O)c2c(C)nn3cccnc23)n1

1: 1%; 2: 88%; 3: 76%

Give Activity for each of the items listed below.
1. COc1cc(OC)nc(NC(=O)NS(=O)(=O)c2c(C)nc3n(C)ccn23)n1
2. COc1cc(OC)nc(NC(=O)NS(=O)(=O)c2nc(C)n3ccccc23)n1
3. COc1cc(OC)nc(NC(=O)NS(=O)(=O)c2ncc3ccccn23)n1
4. COc1cc(OC)nc(NC(=O)NS(=O)(=O)c2c(C)cn3ccccc23)n1
5. COc1cc(OC)nc(NC(=O)NS(=O)(=O)c2c(C)cc3ccccn23)n1

1: 1%; 2: 51%; 3: 1%; 4: 51%; 5: 51%

Dear reader, for each entry below, please note its Activity.
1. COc1cc(OC)nc(NC(=O)NS(=O)(=O)c2c(C)nc3cccnn23)n1
2. COc1cc(OC)nc(NC(=O)NS(=O)(=O)c2c(C)nc3scnn23)n1

1: 88%; 2: 1%

----------
So I've got a bunch of compounds here, and I need their Activity values.
System: Lindernia procumbens
protocol_description: Herbicidal activity against Lindernia procumbens assessed as killing at 1 g/ha by pot test
Assay type: functional
One number for each entry, in %.

>  <smi>
COc1cc(OC)nc(NC(=O)NS(=O)(=O)c2c(C)nc3scnn23)n1

>  <units_of_measure>
%

>  <Activity>
76

$$$$
>  <smi>
COc1cc(OC)nc(NC(=O)NS(=O)(=O)c2c(C)nc3n(C)ccn23)n1

>  <units_of_measure>
%

>  <Activity>
51

$$$$
>  <smi>
COc1cc(OC)nc(NC(=O)NS(=O)(=O)c2c(C)cn3ccccc23)n1

>  <units_of_measure>
%

>  <Activity>
1

$$$$
>  <smi>
COc1cc(OC)nc(NC(=O)NS(=O)(=O)c2c(C)nn3ccccc23)n1

>  <units_of_measure>
%

>  <Activity>
76

$$$$

Let us examine a further case.
Value of Activity reported for the compound COc1cc(OC)nc(NC(=O)NS(=O)(=O)c2ncn3ccccc23)n1 is 1

----------
Kindly supply the reported Activity values for the records listed here.
Test system: Sagittaria pygmaea
protocol_description: Herbicidal activity against Sagittaria pygmaea assessed as killing at 10 g/ha by pot test
Assay type: functional
Answers are plain numbers, in %.

Answered cases to consult:
>  <smi>
COc1cc(OC)nc(NC(=O)NS(=O)(=O)c2c(C)cc3ccccn23)n1

>  <Activity (%)>
76

$$$$
>  <smi>
COc1cc(OC)nc(NC(=O)NS(=O)(=O)c2c(C)nc3n(C)ccn23)n1

>  <Activity (%)>
76

$$$$
>  <smi>
COc1cc(OC)nc(NC(=O)NS(=O)(=O)c2c(C)nn3cccnc23)n1

>  <Activity (%)>
88

$$$$
>  <smi>
COc1cc(OC)nc(NC(=O)NS(=O)(=O)c2c(C)cn3ccccc23)n1

>  <Activity (%)>
76

$$$$
>  <smi>
COc1cc(OC)nc(NC(=O)NS(=O)(=O)c2c(C)nc3cccnn23)n1

>  <Activity (%)>
100

$$$$
>  <smi>
COc1cc(OC)nc(NC(=O)NS(=O)(=O)c2nc(C)n3ccccc23)n1

>  <Activity (%)>
51

$$$$

Hello, I would appreciate it if you could give Activity for each entry below.
1. COc1cc(OC)nc(NC(=O)NS(=O)(=O)c2c(C)nc3scnn23)n1
2. COc1cc(OC)nc(NC(=O)NS(=O)(=O)c2c(C)nn3ccccc23)n1

[88, 88]

For the 2 molecules below, give their Activity values.
1. COc1cc(OC)nc(NC(=O)NS(=O)(=O)c2ncn3ccccc23)n1
2. COc1cc(OC)nc(NC(=O)NS(=O)(=O)c2ncc3ccccn23)n1

1. 76
2. 76
